Molecular target: HCV NS3/4A protease complex (BMS strain, genotype 1a) (Hepatitis C virus genotype 1a, UniProt P27958, C1454S)
Construct: DNA encoding the recombinant HCV NS3/4A protease complex (amino acids 1027 to 1711) for these strains; inferred from the pET21b vector and Ni-NTA purification; made in house; host or cells: Escherichia coli BL21 (DE3), pET21b
Sequence (P27958 1658-1714, looked up, stated change not applied): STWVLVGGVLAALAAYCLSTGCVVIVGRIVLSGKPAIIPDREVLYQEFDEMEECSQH
Sequence (P27958 1027-1657, looked up, stated change not applied): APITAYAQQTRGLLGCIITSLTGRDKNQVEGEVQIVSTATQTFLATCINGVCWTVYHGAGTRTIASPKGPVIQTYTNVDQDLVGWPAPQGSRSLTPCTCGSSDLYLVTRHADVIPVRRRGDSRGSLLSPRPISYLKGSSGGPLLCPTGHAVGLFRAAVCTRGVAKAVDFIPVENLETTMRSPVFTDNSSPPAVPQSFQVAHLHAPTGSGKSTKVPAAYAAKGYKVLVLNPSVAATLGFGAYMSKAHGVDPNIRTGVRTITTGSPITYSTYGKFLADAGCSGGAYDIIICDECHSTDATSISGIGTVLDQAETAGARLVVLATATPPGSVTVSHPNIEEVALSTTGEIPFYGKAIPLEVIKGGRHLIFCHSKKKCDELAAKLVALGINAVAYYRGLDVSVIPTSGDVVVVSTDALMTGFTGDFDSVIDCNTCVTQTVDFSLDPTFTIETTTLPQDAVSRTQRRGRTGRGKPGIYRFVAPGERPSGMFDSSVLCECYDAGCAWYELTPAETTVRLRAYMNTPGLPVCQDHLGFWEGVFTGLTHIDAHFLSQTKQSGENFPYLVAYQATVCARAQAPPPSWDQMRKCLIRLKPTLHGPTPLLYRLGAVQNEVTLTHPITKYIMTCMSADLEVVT
Experiment: Recombinant HCV NS3/4A protease complex FRET peptide assay, BMS strain
Format: biochemical
Conditions: IC50 range, NS3/4A BMS Strain
Listed compounds paired with reported IC50
Recorded endpoint: IC50

C=CCC1(S(=O)(=O)NC(=O)[C@@]2(NC(=O)[C@@H]3C[C@@H](Oc4cc(-c5ccccc5)nc5cc(OC)ccc45)CN3C(=O)[C@@H](NC(=O)OC(C)(C)C)C(C)(C)C)CC2C=C)CC1 (stereo partly drawn) [Compound 2]	< 50 nM
C=C[C@@H]1C[C@]1(NC(=O)[C@@H]1C[C@@H](Oc2cc(-c3ccccc3)nc3cc(OC)ccc23)CN1C(=O)[C@@H](NC(=O)OC(C)(C)C)C(C)(C)C)C(=O)NS(=O)(=O)C1(Cc2ccncc2)CC1 [Compound 47]	< 50 nM
C=CC1C[C@]1(NC(=O)[C@@H]1C[C@@H](Oc2cc(-c3ccccc3)nc3cc(OC)ccc23)CN1C(=O)[C@@H](NC(=O)OC(C)(C)C)C(C)(C)C)C(=O)NS(=O)(=O)C1(C(=O)Nc2c(C)noc2C)CC1 (stereo partly drawn) [Compound 10]	< 50 nM
COc1ccc2c(O[C@@H]3C[C@@H](C(=O)NC4(C(=O)NS(=O)(=O)C5(C(=O)c6ccccc6)CC5)CC4)N(C(=O)[C@@H](NC(=O)OC(C)(C)C)C(C)(C)C)C3)cc(-c3ccccc3)nc2c1 [Compound 73]	500 to 5000 nM
C=C[C@@H]1C[C@]1(NC(=O)[C@@H]1C[C@@H](Oc2cc(-c3ccccc3)nc3cc(OC)ccc23)CN1C(=O)[C@@H](NC(=O)OC(C)(C)C)C(C)(C)C)C(=O)NS(=O)(=O)C1(CC2CCC2)CC1 [Compound 32]	< 50 nM
C=C[C@@H]1C[C@]1(NC(=O)[C@@H]1C[C@@H](Oc2cc(-c3csc(NC(C)C)n3)nc3cc(OC)ccc23)CN1C(=O)[C@@H](NC(=O)OC(C)(C)C)C(C)(C)C)C(=O)NS(=O)(=O)C1(CC2CC2)CC1 [Compound 80]	< 50 nM
COc1ccc2c(O[C@@H]3C[C@@H](C(=O)NC4(C(=O)NS(=O)(=O)C5(Cc6ccccc6)CC5)CC45CC5)N(C(=O)[C@@H](NC(=O)OC(C)(C)C)C(C)(C)C)C3)cc(-c3ccccc3)nc2c1 (mixture of isomers) [Compound 201]	500 to 5000 nM
C=CC1C[C@]1(NC(=O)[C@@H]1C[C@@H](Oc2cc(-c3ccccc3)nc3cc(OC)ccc23)CN1C(=O)[C@@H](NC(=O)OC(C)(C)C)C(C)(C)C)C(=O)NS(=O)(=O)C1(C(=O)NCCC)CC1 (stereo in doubt) [Compound 9]	< 50 nM
C=C[C@@H]1C[C@]1(NC(=O)[C@@H]1C[C@@H](Oc2cc(-c3ccccc3)nc3cc(OC)ccc23)CN1C(=O)[C@@H](NC(=O)CCOC)C(C)(C)C)C(=O)NS(=O)(=O)C1(Cc2ccccc2)CC1 [Compound 112]	50 to 500 nM
C=C[C@@H]1C[C@]1(NC(=O)[C@@H]1C[C@@H](Oc2cc(-c3ccccc3)nc3cc(OC)ccc23)CN1C(=O)[C@@H](NC(=O)Oc1ccccc1)C(C)(C)C)C(=O)NS(=O)(=O)C1(Cc2ccccc2)CC1 [Compound 101]	50 to 500 nM
C=C[C@@H]1C[C@]1(NC(=O)[C@@H]1C[C@@H](Oc2cc(-c3ccccc3)nc3cc(OC)ccc23)CN1C(=O)[C@@H](NC(=O)OCCOC)C(C)(C)C)C(=O)NS(=O)(=O)C1(Cc2ccccc2)CC1 [Compound 104]	50 to 500 nM
C=C[C@@H]1C[C@]1(NC(=O)[C@@H]1C[C@@H](Oc2cc(-c3ccccc3)nc3cc(OC)ccc23)CN1C(=O)[C@@H](NC(=O)NC(C)(C)C)C(C)(C)C)C(=O)NS(=O)(=O)C1(Cc2ccccc2)CC1 [Compound 62]	< 50 nM
